assay: Single dose oral pharmacokinetic study in mice; assay type: in vivo; conditions: Oral PK @ 30 mg/ kg dose in mice (Table 6)
The entries below come with measured Tlast values attached.
Readout Label: Tlast (h)

- Smiles Input: "CC(C)(CC(=O)O[C@H]1CC[C@]2(C)[C@H]3CC[C@@H]4[C@H]5[C@H](C6(C)CC6)CC[C@]5(C(=O)N5CCN(CCN6CCOCC6)CC5)CC[C@@]4(C)[C@]3(C)CC[C@H]2C1(C)C)C(=O)O"
  Readout Units: "h"
  Data Value: 48
- Smiles Input: "COCCOCCN1CCN(C(=O)[C@]23CC[C@@H](C4(C)CC4)[C@@H]2[C@H]2CC[C@@H]4[C@@]5(C)CC[C@H](OC(=O)CC(C)(C)C(=O)O)C(C)(C)[C@@H]5CC[C@@]4(C)[C@]2(C)CC3)CC1"
  Readout Units: "h"
  Data Value: 48
- Smiles Input: "CC(C)(CC(=O)O[C@H]1CC[C@]2(C)[C@H]3CC[C@@H]4[C@H]5[C@H](C6(C)CC6)CC[C@]5(C(=O)N5CCC(C#N)(c6ccccc6)CC5)CC[C@@]4(C)[C@]3(C)CC[C@H]2C1(C)C)C(=O)O"
  Readout Units: "h"
  Data Value: 24
- Smiles Input: "CC1([C@@H]2CC[C@]3(C(=O)N4CCN(CCN5CCOCC5)CC4)CC[C@]4(C)[C@H](CC[C@@H]5[C@@]6(C)CC[C@H](OC(=O)[C@H]7C[C@@H](C(=O)O)C7(C)C)C(C)(C)[C@@H]6CC[C@]54C)[C@@H]23)CC1"
  Readout Units: "h"
  Data Value: 48

###

assay: Single dose oral pharmacokinetic study in mice; assay type: in vivo; details: mouse, plasma; Oral PK @ 30 mg/ kg dose in mice (Table 6)
Readout Label: Cmax (ng/mL)

- Compound: "COCCOCCN1CCN(C(=O)[C@]23CC[C@@H](C4(C)CC4)[C@@H]2[C@H]2CC[C@@H]4[C@@]5(C)CC[C@H](OC(=O)CC(C)(C)C(=O)O)C(C)(C)[C@@H]5CC[C@@]4(C)[C@]2(C)CC3)CC1 [Example 39]"
  Data Value: 7000
- Compound: "[2H]C([2H])([2H])C(CC(=O)O[C@H]1CC[C@]2(C)[C@H]3CC[C@@H]4[C@H]5[C@H](C(=C)C)CC[C@]5(C(=O)N5CCN(CC)CC5)CC[C@@]4(C)[C@]3(C)CC[C@H]2C1(C)C)(C(=O)O)C([2H])([2H])[2H] [Example 25]"
  Data Value: 6200

###

assay: Single dose oral pharmacokinetic study in rat; type: in vivo; settings: plasma; Rat oral PK @30 mg/kg (Table 3)

- Smiles Input: "C=C(C)[C@@H]1CC[C@]2(C(=O)O)CC[C@]3(C)[C@H](CC[C@@H]4[C@@]5(C)CC[C@H](OC(=O)[C@H]6[C@@H](CC(=O)O)C6(C)C)C(C)(C)[C@@H]5CC[C@]43C)[C@@H]12"
  Readout Units: "ng·h/mL"
  AUC(0-t): 3120
- Smiles Input: "C=C(C)[C@@H]1CC[C@]2(C(=O)N[C@@H]3C[C@H](c4nnc(C)o4)C3(C)C)CC[C@]3(C)[C@H](CC[C@@H]4[C@@]5(C)CC[C@H](OC(=O)CC(C)(C)C(=O)O)C(C)(C)[C@@H]5CC[C@]43C)[C@@H]12"
  Readout Units: "ng·h/mL"
  AUC(0-t): 8050
- Smiles Input: "CC(C)(CC(=O)O[C@H]1CC[C@]2(C)[C@H]3CC[C@@H]4[C@H]5[C@H](C6(C)CC6)CC[C@]5(C(=O)N[C@@H]5C[C@H](C(=O)N6CCCCC6)C5(C)C)CC[C@@]4(C)[C@]3(C)CC[C@H]2C1(C)C)C(=O)O"
  Readout Units: "ng·h/mL"
  AUC(0-t): 22300

###

Tested on: HIV-1 strain 92HT599
Assay: Antiviral activity: p24 estimation in MT2 cells infected with HIV-1 strain 92HT599
Assay type: cell-based
Details: Human immunodeficiency virus 1; 100 nM; MT2 cells, HIV-1 92HT599, ~96 hours, p24; read-out: Antiviral activity % inhibition 100 nM
Description: MT2 cells were infected with HIV-1 strain 92HT599 (10 TCID 50/30000 cells). The infected cells were plated at the concentration of […] cells per well in 96 well plate. Test compound was added to the micro plate in defined format with the final concentration of DMSO (vehicle) is not more than 1%. […] The quantitation of p24 is an index for antiviral activity of the compound. Percent inhibition was calculated with reference to control values (vehicle controls). […]
Readout Label: inhibition at 0.1 µM

- Compound: "CC1([C@@H]2CC[C@]3(C(=O)N4CCC(C(=O)NCCN5CCOCC5)CC4)CC[C@]4(C)[C@H](CC[C@@H]5[C@@]6(C)CC[C@H](OC(=O)[C@H]7C[C@@H](C(=O)O)C7(C)C)C(C)(C)[C@@H]6CC[C@]54C)[C@@H]23)CC1"
  Data Value: "99%"
- Compound: "C=C(C)[C@@H]1CC[C@]2(C(=O)N[C@@H]3C[C@H](c4nnc(CC(C)C)o4)C3(C)C)CC[C@]3(C)[C@H](CC[C@@H]4[C@@]5(C)CC[C@H](OC(=O)CC(C)(C)C(=O)O)C(C)(C)[C@@H]5CC[C@]43C)[C@@H]12"
  Data Value: "100%"
- Compound: "CC(C)(CC(=O)O[C@H]1CC[C@]2(C)[C@H]3CC[C@@H]4[C@H]5[C@H](C6(C)CC6)CC[C@]5(C(=O)N[C@@H]5C[C@H](C(=O)N6CCCCC6)C5(C)C)CC[C@@]4(C)[C@]3(C)CC[C@H]2C1(C)C)C(=O)O"
  Data Value: "98%"
- Compound: "CC(C)(CC(=O)O)CC(=O)O[C@H]1CC[C@]2(C)[C@H]3CC[C@@H]4C5[C@H](C6(C)CC6)CC[C@]5(C(=O)N[C@H]5C[C@@H](C(=O)N6CCOCC6)C5(C)C)CC[C@@]4(C)[C@]3(C)CC[C@H]2C1(C)C (some centres unmarked)"
  Data Value: "100%"
- Compound: "CCN1CCN(C(=O)[C@]23CC[C@@H](C4(C)CC4)[C@@H]2[C@H]2CC[C@@H]4[C@@]5(C)CC[C@H](OC(=O)CC(C)(C)C(=O)O)C(C)(C)[C@@H]5CC[C@@]4(C)[C@]2(C)CC3)CC1"
  Data Value: "100%"
- Compound: "CC1([C@@H]2CC[C@]3(C(=O)N4CCC(OCCN5CCOCC5)CC4)CC[C@]4(C)[C@H](CC[C@@H]5[C@@]6(C)CC[C@H](OC(=O)[C@H]7C[C@@H](C(=O)O)C7(C)C)C(C)(C)[C@@H]6CC[C@]54C)[C@@H]23)CC1"
  Data Value: "97%"
- Compound: "C=C(C)[C@@H]1CC[C@]2(C(=O)N[C@@H]3C[C@H](C(=O)N4CCCCC4)C3(C)C)CC[C@]3(C)[C@H](CC[C@@H]4[C@@]5(C)CC[C@H](OC(=O)[C@H]6[C@@H](CC(=O)O)C6(C)C)C(C)(C)[C@@H]5CC[C@]43C)[C@@H]12"
  Data Value: "100%"
- Compound: "C=C(C)[C@@H]1CC[C@]2(c3nnc(-c4cccnc4)o3)CC[C@]3(C)[C@H](CC[C@@H]4[C@@]5(C)CC[C@H](OC(=O)[C@H]6[C@@H](CC(=O)O)C6(C)C)C(C)(C)[C@@H]5CC[C@]43C)[C@@H]12"
  Data Value: "85%"

###

test: Single dose oral pharmacokinetic study in mice; type: in vivo; conditions: mouse, plasma; Oral PK @ 30 mg/ kg dose in mice (Table 6); read-out: AUCt
The entries below come with measured log10 of AUC(0-t) values attached.
Readout Label: log10 of AUC(0-t) (log10 of the value in µg·h/mL)

- Smiles Input: "CC(C)(CC(=O)O[C@H]1CC[C@]2(C)[C@H]3CC[C@@H]4[C@H]5[C@H](C6(C)CC6)CC[C@]5(C(=O)N5CCN(CCN6CCOCC6)CC5)CC[C@@]4(C)[C@]3(C)CC[C@H]2C1(C)C)C(=O)O"
  log10 of AUC(0-t): 2.33
- Smiles Input: "[2H]C([2H])([2H])C(CC(=O)O[C@H]1CC[C@]2(C)[C@H]3CC[C@@H]4[C@H]5[C@H](C6(C)CC6)CC[C@]5(C(=O)N5CCN(CC)CC5)CC[C@@]4(C)[C@]3(C)CC[C@H]2C1(C)C)(C(=O)O)C([2H])([2H])[2H]"
  log10 of AUC(0-t): 1.83
- Smiles Input: "CC(C)(CC(=O)O[C@H]1CC[C@]2(C)[C@H]3CC[C@@H]4[C@H]5[C@H](C6(C)CC6)CC[C@]5(C(=O)N5CCC(C(=O)NCCN6CCOCC6)CC5)CC[C@@]4(C)[C@]3(C)CC[C@H]2C1(C)C)C(=O)O"
  log10 of AUC(0-t): 1.59
- Smiles Input: "CC1([C@@H]2CC[C@]3(C(=O)N4CCC(C(=O)NCCN5CCOCC5)CC4)CC[C@]4(C)[C@H](CC[C@@H]5[C@@]6(C)CC[C@H](OC(=O)[C@H]7C[C@@H](C(=O)O)C7(C)C)C(C)(C)[C@@H]6CC[C@]54C)[C@@H]23)CC1"
  log10 of AUC(0-t): 2.21
- Smiles Input: "COC1CCN(C(=O)[C@]23CC[C@@H](C4(C)CC4)[C@@H]2[C@H]2CC[C@@H]4[C@@]5(C)CC[C@H](OC(=O)[C@H]6C[C@@H](C(=O)O)C6(C)C)C(C)(C)[C@@H]5CC[C@@]4(C)[C@]2(C)CC3)CC1"
  log10 of AUC(0-t): 2.63
- Smiles Input: "C=C(C)[C@@H]1CC[C@]2(C(=O)N[C@@H]3C[C@H](c4nnc(C)o4)C3(C)C)CC[C@]3(C)[C@H](CC[C@@H]4[C@@]5(C)CC[C@H](OC(=O)[C@H]6C[C@@H](C(=O)O)C6(C)C)C(C)(C)[C@@H]5CC[C@]43C)[C@@H]12"
  log10 of AUC(0-t): 1.98
